systemName: human RORgT (Homo sapiens)
Construct: expressed in transfected cells
Sequence (P51449 267-516): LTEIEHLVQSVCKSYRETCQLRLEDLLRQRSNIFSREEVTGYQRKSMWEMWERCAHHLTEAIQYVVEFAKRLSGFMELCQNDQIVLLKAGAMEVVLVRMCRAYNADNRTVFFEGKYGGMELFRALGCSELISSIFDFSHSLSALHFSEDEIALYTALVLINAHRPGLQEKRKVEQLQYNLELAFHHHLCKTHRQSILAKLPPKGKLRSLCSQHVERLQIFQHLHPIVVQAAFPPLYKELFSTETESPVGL
assaySummary: RORgT Gal4 Luciferase Reporter Gene Assay
Type: cell-based
recordedConditions: engineered Jurkat cells overexpressing RORgT (LBD or full length) fused with Gal4 Luc reporter; 18 hours at 37° C.; luminescence
assayReadout: pEC50
Give bare numbers, as −log10 of the molar value.

Some solved cases for reference:
{"compound": "CS(=O)(=O)CC(=O)N1CC[C@@]2(S(=O)(=O)c3ccc(F)cc3)c3ccc(OCc4cc(F)ccc4Cl)cc3CC[C@@H]12 [Example 195]", "recordedNumber": 6.80}
{"compound": "CC(=O)NC1CC2(C1)CC(C(=O)N1CC[C@@]3(S(=O)(=O)c4ccccc4)c4ccc(OCc5c(Cl)cccc5Cl)cc4CC[C@@H]13)C2 (stereo partly drawn) [Example 67]", "recordedNumber": 6.38}
{"compound": "O=C(O)C12CCC(C(=O)N3CC[C@@]4(S(=O)(=O)c5ccccc5)c5ccc(OCc6c(Cl)cccc6Cl)cc5CC[C@@H]34)(CC1)CC2 [Example 81]", "recordedNumber": 7.60}
{"compound": "CS(=O)(=O)C1CCN(C(=O)N2CC[C@@]3(S(=O)(=O)c4ccccc4)c4ccc(OCc5c(Cl)cccc5Cl)cc4CC[C@@H]23)CC1 [Example 82]", "recordedNumber": 7.01}
{"compound": "Cc1ccccc1Cc1ccc2c(c1)CC[C@H]1N(C(=O)[C@H]3CC[C@H](C(=O)O)CC3)CC[C@@]21S(=O)(=O)c1ccc(F)cc1 [Example 43]", "recordedNumber": 8.57}

Inquiry: Bench note: what pEC50 did O=C(O)[C@H]1CC[C@](O)(C(=O)N2CC[C@@]3(S(=O)(=O)c4ccc(F)cc4)c4ccc(OCc5c(F)cccc5C(F)(F)F)cc4CC[C@@H]23)CC1 [Example 27] show?
Reply text: 7.00

###

systemName: human RORgT (Homo sapiens)
assaySummary: RORgT Gal4 Luciferase Reporter Gene Assay
recordedConditions: engineered Jurkat cells overexpressing RORgT (LBD or full length) fused with Gal4 Luc reporter; 18 hours at 37° C.; luminescence
assayReadout: EC50

Some solved cases for reference:
{"structureSmiles": "O=C(O)[C@H]1CC[C@H](C(=O)N2CC[C@@]3(S(=O)(=O)c4ccc(F)cc4)c4ccc(OCc5c(Cl)cccc5Cl)cc4CC[C@@H]23)CC1", "EC50": "9.7 nM"}
{"structureSmiles": "O=C(C1CCS(=O)(=O)CC1)N1CC[C@@]2(S(=O)(=O)c3ccc(F)cc3)c3ccc(OCc4cc(F)ccc4Cl)cc3CC[C@@H]12", "EC50": "8.8 nM"}

Now for another entry.
Inquiry: Bench note: what EC50 did CC(C)(O)CCNC(=O)N1CC[C@@]2(S(=O)(=O)c3ccccc3)c3ccc(OCc4c(Cl)cccc4Cl)cc3CC[C@@H]12 show?
Reply text: 159 nM

###

systemName: human RORgT (Homo sapiens, UniProt P51449)
Construct: expressed in transfected cells
assaySummary: RORgT Gal4 Luciferase Reporter Gene Assay
Assay type: cell-based
recordedConditions: engineered Jurkat cells overexpressing RORgT (LBD or full length) fused with Gal4 Luc reporter; 18 hours at 37° C.; luminescence
Assignment: determine reported pEC50 for the given compounds.
One number for each entry, as −log10 of the molar value.

Some solved cases for reference:
{"compound": "CS(=O)(=O)NCC(=O)N1CC[C@@]2(S(=O)(=O)c3ccccc3)c3ccc(OCc4c(F)cccc4Cl)cc3CC[C@@H]12 [Example 145]", "pEC50": 6.21}
{"compound": "O=C(O)C12CCC(C(=O)N3CC[C@@]4(S(=O)(=O)c5ccccc5)c5ccc(OCc6c(F)cccc6Cl)cc5CC[C@@H]34)(CC1)CC2 [Example 147]", "pEC50": 6.98}
{"compound": "O=C(C1CCS(=O)(=O)CC1)N1CC[C@@]2(S(=O)(=O)c3ccccc3)c3ccc(OCc4c(F)cc(F)cc4Cl)cc3CC[C@@H]12 [Example 149]", "pEC50": 8.11}

For the 3 compounds below, give their pEC50 values.
1. CS(=O)(=O)N1CCC(C(=O)N2CC[C@@]3(S(=O)(=O)c4ccccc4)c4ccc(OCc5c(F)cccc5Cl)cc4CC[C@@H]23)CC1 [Example 137]
2. O=C(C1CCS(=O)(=O)CC1)N1CC[C@@]2(S(=O)(=O)c3ccccc3)c3ccc(OCc4cc(F)ccc4Cl)cc3CC[C@@H]12 [Example 130]
3. CC(=O)N1CC2(CC(C(=O)N3CC[C@@]4(S(=O)(=O)c5ccccc5)c5ccc(OCc6c(Cl)cccc6Cl)cc5CC[C@@H]34)C2)C1 [Example 68]

Reply text:
[8.06, 7.92, 6.39]

###

systemName: human RORgT (Homo sapiens)
assaySummary: RORgT Gal4 Luciferase Reporter Gene Assay
recordedConditions: engineered Jurkat cells overexpressing RORgT (LBD or full length) fused with Gal4 Luc reporter; 18 hours at 37° C.; luminescence
Assignment: determine reported pEC50 for the given compounds.
Give bare numbers, as −log10 of the molar value.

Some solved cases for reference:
{"structureSmiles": "CC(=O)N1CCC(C(=O)N2CC[C@@]3(S(=O)(=O)c4ccccc4)c4ccc(OCc5c(F)cccc5Cl)cc4CC[C@@H]23)CC1", "pEC50": 7.80}
{"structureSmiles": "O=C(N1CC[C@@]2(S(=O)(=O)c3ccc(F)cc3)c3ccc(OCc4c(F)cccc4Cl)cc3CC[C@@H]12)C1(O)CCS(=O)(=O)CC1", "pEC50": 8.26}
{"structureSmiles": "CC(=O)N1CCC(C(=O)N2CC[C@@]3(S(=O)(=O)c4ccccc4)c4ccc(OCc5c(Cl)cccc5Cl)cc4CC[C@@H]23)CC1", "pEC50": 7.89}
{"structureSmiles": "O=C1CCCN1CCN1CC[C@@]2(S(=O)(=O)c3ccccc3)c3ccc(OCc4c(Cl)cccc4Cl)cc3CC[C@@H]12", "pEC50": 6.18}
{"structureSmiles": "O=C(C1CCS(=O)(=O)CC1)N1CC[C@@]2(S(=O)(=O)c3ccccc3)c3ccc(OCc4c(Cl)cccc4Cl)cc3CC[C@@H]12", "pEC50": 8.07}

Now for another entry.
Inquiry: Bench note: what pEC50 did COC(=O)[C@H]1CC[C@H](C(=O)N2CC[C@@]3(S(=O)(=O)c4ccc(F)cc4)c4ccc(OCc5cc(Cl)ccc5Cl)cc4CC[C@@H]23)CC1 show?
Reply text: 6.95

###

systemName: human RORgT (Homo sapiens, UniProt P51449)
Sequence (P51449 267-516): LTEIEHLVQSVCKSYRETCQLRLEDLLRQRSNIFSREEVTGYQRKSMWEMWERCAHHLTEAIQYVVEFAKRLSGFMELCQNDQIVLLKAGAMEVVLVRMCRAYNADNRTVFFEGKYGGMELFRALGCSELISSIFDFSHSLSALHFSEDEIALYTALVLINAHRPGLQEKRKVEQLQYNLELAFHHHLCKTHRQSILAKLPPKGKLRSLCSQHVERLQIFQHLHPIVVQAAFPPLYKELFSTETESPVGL
assaySummary: RORgT Gal4 Luciferase Reporter Gene Assay
recordedConditions: engineered Jurkat cells overexpressing RORgT (LBD or full length) fused with Gal4 Luc reporter; 18 hours at 37° C.; luminescence
assayReadout: pEC50
Give bare numbers, as −log10 of the molar value.

{"structureSmiles": "O=C(O)[C@H]1CC[C@H](C(=O)N2CC[C@@]3(S(=O)(=O)c4ccc(F)cc4)c4ccc(Cc5ccccc5)cc4CC[C@@H]23)CC1", "systemName": "human RORgT (Homo sapiens, UniProt P51449)", "pEC50": 8.00}
{"structureSmiles": "NC(=O)[C@H]1CC[C@H](C(=O)N2CC[C@@]3(S(=O)(=O)c4ccccc4)c4ccc(OCc5c(Cl)cccc5Cl)cc4CC[C@@H]23)CC1", "systemName": "human RORgT (Homo sapiens, UniProt P51449)", "pEC50": 8.55}

For the 3 compounds below, give their pEC50 values.
1. O=C(N1CC[C@@]2(S(=O)(=O)c3ccccc3)c3ccc(OCc4c(Cl)cccc4Cl)cc3CC[C@@H]12)C1(O)CCOCC1
2. CS(=O)(=O)N1CCC(C(=O)N2CC[C@@]3(S(=O)(=O)c4ccc(F)cc4)c4ccc(OCc5c(Cl)cccc5Cl)cc4CC[C@@H]23)CC1
3. O=C(C1CCS(=O)(=O)CC1)N1CC[C@@]2(S(=O)(=O)c3ccccc3)c3ccc(OCc4c(F)cccc4F)cc3CC[C@@H]12

Reply text:
1. 7.89
2. 8.06
3. 7.77

Inquiry: # value lookup — system human RORgT (Homo sapiens, UniProt P51449), readout pEC50, item N#CCCN1C(=O)CC[C@H]1C(=O)N1CC[C@@]2(S(=O)(=O)c3ccc(F)cc3)c3ccc(OCc4cc(Cl)ccc4Cl)cc3CC[C@@H]12
Reply text: 8.37
